- System: UACC-62
- PROTOCOL DESCRIPTION: NCI tumour cell line growth inhibition, 48 h
Calls of active or inactive are those of the source. Cut-off read from the data, not from the text of the source: active = GI50 up to about 1.1 µM and inactive = higher. Where a SMILES comes first, the peptide text is derived from it. The star is where a group is joined. Boc = CC(C)(C)OC(=O)*
PROPERTY MEASURED: GI50

COMPOUND	EXPERIMENTAL TARGET	VALUE
O=c1c(C(c2ccc(O)cc2)c2c(O)oc3ccccc3c2=O)c(O)oc2ccccc12	UACC-62	79.1 µM (inactive)
COc1cccc(NC(=O)C(=O)C(C(C)=O)c2nc3ccc(Cl)cc3nc2O)c1 (stereo not drawn)	UACC-62	> 100 µM (inactive)
CN(C)c1ccc(-c2nc(N)nc3c2CCCC3)cc1	UACC-62	44.7 µM (inactive)
CSC12c3cc(C)n(-c4ccc([N+](=O)[O-])cc4)c3CC(C)(C)CN1C(=O)C2Oc1ccccc1 (stereo not drawn)	UACC-62	22.2 µM (inactive)
CN(C)CCCN=C(N)N	UACC-62	> 100 µM (inactive)
CC1(C)C2CCC1(C)C(OC(=O)/C=C/C(=O)OC1CC3CCC1(C)C3(C)C)C2 (stereo not drawn)	UACC-62	31.2 µM (inactive)
COc1ccc(CC2c3cc(Oc4cc(CC5c6cc(OC)c(OC)cc6CCN5C)ccc4O)c(OC)cc3CCN2C)cc1 (stereo not drawn)	UACC-62	8.65 µM (inactive)
COC(=O)C(Cc1c[nH]c2ccccc12)NC(=O)C(Cc1c[nH]c2ccccc12)NC(=O)C(Cc1c[nH]c2ccccc12)NC(=O)C(Cc1c[nH]c2ccccc12)NC(=O)C(Cc1c[nH]c2ccccc12)NC(=O)C(Cc1c[nH]c2ccccc12)NC(=O)C(Cc1c[nH]c2ccccc12)NC(=O)C(Cc1c[nH]c2ccccc12)NC(=O)OC(C)(C)C (stereo not drawn) (Boc-WWWWWWWW-OMe; configuration not given here)	UACC-62	28.5 µM (inactive)
